Data credit: a collection of fitness landscapes (doi:10.1016/j.celrep.2020.107928)

Assignment: determine reported one-hybrid fitness for binding parS DNA for the given variants.
B1: Caulobacter ParB omega fusion; a variant is named by its letters at X, in order, B8GW30 (parent)
chain: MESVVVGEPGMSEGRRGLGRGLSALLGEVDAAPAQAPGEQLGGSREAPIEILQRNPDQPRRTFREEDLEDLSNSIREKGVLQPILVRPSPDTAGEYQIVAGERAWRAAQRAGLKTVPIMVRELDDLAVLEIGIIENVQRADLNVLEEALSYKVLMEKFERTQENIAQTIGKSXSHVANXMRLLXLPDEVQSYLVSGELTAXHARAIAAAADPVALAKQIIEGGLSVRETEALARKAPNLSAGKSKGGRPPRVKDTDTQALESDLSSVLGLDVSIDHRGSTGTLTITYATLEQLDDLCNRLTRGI

Variants of: B1
ASSAY_PROCEDURE: one-hybrid fitness for binding parS DNA (scaled: cognate 1, non-cognate 0); higher = stronger binding
CONDITION_NOTES: with parS DNA site
Whole data set: some 81,000 sequences, median “one-hybrid fitness for binding parS DNA” near -0.17, cut for the highest 2% near 0.51. The entries come from a sample that favours the highest values as a whole.
One number for each entry.

# example entries with known answers
>  <VARIANT_LABEL>
RRYG

>  <one-hybrid fitness for binding parS DNA>
0.769

$$$$
>  <VARIANT_LABEL>
RHTS

>  <one-hybrid fitness for binding parS DNA>
0.893

$$$$
>  <VARIANT_LABEL>
RRGG

>  <one-hybrid fitness for binding parS DNA>
0.698

$$$$

Batch request: one-hybrid fitness for binding parS DNA for each of the following variants.
1. RRCN
2. RAVY
3. RMVY
4. RHTN
5. RRVS
6. RRRM
7. RMKY

1: 0.452; 2: 0.412; 3: 0.438; 4: 0.384; 5: 0.708; 6: 0.762; 7: 0.782

Batch request: one-hybrid fitness for binding parS DNA for each of the following variants.
1. RLQW
2. RRSG
3. RAKY
4. RRGY

0.245
0.711
0.644
0.361
